The measured values listed here are drawn from PubChem BioAssay (NCATS).

# procedure-summary: Cellular viability qHTS for adrenocortical cancer (ACC) cell line NCI-H295R (AID 1963990); further: nearly all actives have a fitted effect of over 60% in size; further: potency means the concentration at half of the fitted maximal effect
# setup-conditions: CellTiter-Glo ATP luminescence, 48 h; series mostly up to 46.1 µM
Records with an inconclusive call do not appear. Active and inactive are the calls of the source. The call rests on the fitted dose curve; in most records, active means well fitted cell-killing curve with a large enough effect; inconclusive means small, poorly fitted or top-dose-only effect; inactive means flat fitted curve, though single readings scatter.
reported-metric: Potency

Record excerpt, results attached:
CC(C)c1c2cc(-c3ccnc(NC4CCC(NC5CCOCC5)CC4)n3)ccc2nn1C (stereo not given); 447 nM (active)
Oc1cc(O)cc(/C=C/c2ccc(O)c(O)c2)c1; inactive
O=C(Nc1cn[nH]c1-c1nc2ccc(CN3CCOCC3)cc2[nH]1)NC1CC1; 20000 nM (active)
CC1(C)Cc2c(sc(NC(=S)NC(=O)c3ccccc3)c2C(=O)O)CO1; inactive

Please report the recorded Potency for `C[C@]12CCC(=O)C=C1CC[C@@H]1[C@@H]2[C@@H](O)C[C@@]2(C)[C@H]1CC[C@]2(O)C(=O)COC(=O)CCC(=O)O` .
inactive

###

# procedure-summary: Viability qHTS for spleen associated tyrosine kinase inhibitor (SYKi) naive MV4-11 cells (AID 1963823); further: nearly all actives have a fitted effect of over 40% in size
# setup-conditions: MV4-11 AML viability, CellTiter-Glo luminescence, 72 h; series mostly up to 45 µM
Records with an inconclusive call do not appear. Activity calls are given as the source filed them. Calls come from the whole dose curve; as a rule, active = well fitted cell-killing curve with a large enough effect; inconclusive = small, poorly fitted or top-dose-only effect, or effect the other way; inactive = no such curve, though single readings can be large or run the other way.
Mark one answer only. Choices: True for active, False for inactive

Past entries and their recorded results:
C/C(=C\CC[C@@H](C)[C@H]1CC(O)[C@@]2(C)C3CC[C@H]4C(C)(C)[C@@H](OC5OCC(O)C(O)C5OC5OC(CO)C(O)C(O)C5O)CC[C@@]45C[C@@]35CC(O)[C@]12C)C(=O)O (some centres undefined); False
C=C(C(=O)O)C1CCC2(C)CCC(O)C(C)(O)C2C1 (centres undefined); False
CNc1nc(NCc2ccc(NS(C)(=O)=O)cc2Cl)cc(-c2ccccn2)n1; True

Look up the recorded call for `CCOC(=O)[C@H](CCc1ccccc1)N[C@@H](C)C(=O)N1Cc2cc(OC)c(OC)cc2C[C@H]1C(=O)O` in this test.
False

###

# procedure-summary: Cellular viability qHTS for adrenocortical cancer (ACC) cell line SW-13 (AID 1963989);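 further: cells grown in serum-free medium with ITS supplement; on the % scale 0 is the no-effect control and ±100 the full control effect; nearly all actives have a fitted effect of over 65% in size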
# setup-conditions: SW-13 ACC cells viability, CellTiter-Glo, 48 h; stronger effect = lower value
Inconclusive results are not listed.
Property: activity (max response); scope: individual molecules
// return numeric value only (unit: %, not printed)

Worked examples, 5 molecules total:
O=C(O)CCCc1ccccc1; 16.4
O=S(=O)(O)c1ccc2cc(N=Nc3cc(S(=O)(=O)O)c4cccnc4c3O)ccc2c1; -15.7
c1coc(CNc2ncnc3nc[nH]c23)c1; -0.681
CCOc1ccc(NC(=O)CC(C)O)cc1 (configuration not stated); -9.31
CC(C)OC(=O)C1=CN(C(=O)c2ccc(F)c(F)c2)CC(C)(C)c2c1[nH]c1ccccc21; -5.24

If you can, please state the reported activity (max response) value of NC1CCN(c2nc3c(cc2F)c(=O)c(C(=O)O)cn3-c2ccc(F)cc2F)C1 (configuration not stated) .
-6.92

Return reported activity (max response); argument: `Nc1ccc(C(=O)Oc2ccccc2)c(O)c1`
-6.48

Look up activity (max response) for this molecule: CC(CC1c2ccccc2CCc2ccccc21)CN(C)C (configuration not stated)
-20.3

Which activity (max response) value belongs to `CCOC(=O)c1cnc2c(cnn2CC)c1NN=C(C)C` ?
7.42

So what's the measured activity (max response) for this one? `CCCCCCn1c(=O)c2c(ncn2C)n(C)c1=O`
14

Name the recorded activity (max response) for `Cc1nc2n(c(=O)c1CCN1CCC(c3noc4cc(F)ccc34)CC1)CCC[C@H]2O` .
4.14

Given the molecule CCN1CCCC1CN (configuration not stated) , what is its reported activity (max response)?
-2.8

###

# procedure-summary: Quantitative highthroughput screen to assess conditional lethalithy of NOMO1 cells grown in RPMI1640 with dialyzed fetal bovine serum (RPMI+ds) (AID 1963877); further: nearly all actives have a fitted effect of over 30% in size; further: potency means the concentration at half of the fitted maximal effect;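 on viability: 100% = DMSO control wells and 0% = empty wells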
# setup-conditions: NOMO1 in RPMI+dialyzed FBS viability, ATP luminescence, 48 h; series mostly up to 45.8 µM
Results filed as inconclusive are left out. Calls of active or inactive are those of the source. The call rests on the fitted dose curve; in most records, active means well fitted cell-killing curve with a large enough effect; inconclusive means small, poorly fitted or top-dose-only effect; inactive means flat fitted curve, though single readings scatter.
reported-metric: Potency

Past entries and their recorded results:
COc1ccc(-c2oc3c(CC=C(C)C)c(OC4O[C@H](CO)[C@@H](O)[C@H](O)[C@@H]4O)cc(O)c3c(=O)c2OC2O[C@@H](C)[C@H](O)[C@@H](O)[C@@H]2O)cc1 (stereo partly specified); inactive
N#Cc1ccc(NC(=O)Nc2ccccc2Br)c2n[nH]nc12; inactive
Cc1c(C)c2c(c(C)c1O)CCC(C)(COc1ccc(CC3SC(=O)NC3=O)cc1)O2 (stereo unspecified); inactive
OCCn1cc(-c2ccc3c(c2)CCC3=NO)c(-c2ccncc2)n1; inactive
Cc1noc(NS(=O)(=O)c2ccc(N)cc2)c1C; inactive

Next molecule, Potency to be filled in.
Give the measured Potency of `CCN1CCN(c2ccc(Nc3cc(N(C)C(=O)Nc4c(Cl)c(OC)cc(OC)c4Cl)ncn3)cc2)CC1` .
7.43 µM (active)

###

# procedure-summary: Quantitative highthroughput screen to assess conditional lethalithy of NOMO1 cells grown in RPMI1640 with untreated serum (RPMI+s) (AID 1963876); further: nearly all actives have a fitted effect of over 35% in size;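 on viability: 100% = DMSO wells and 0% = empty wells without cells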
# setup-conditions: NOMO1 AML cells in RPMI+serum, CellTiter-Glo viability, 48 h; series mostly up to 45.8 µM
Inconclusive results are not listed. Activity calls are given as the source filed them. The call rests on the fitted dose curve; in most records, active means well fitted cell-killing curve with a large enough effect; inconclusive means small, poorly fitted or top-dose-only effect; inactive means flat fitted curve, though single readings scatter.
Parameter call: string, one of active, inactive

Cc1cn(-c2cc(NC(=O)c3ccc(C)c(Nc4nccc(-c5cccnc5)n4)c3)cc(C(F)(F)F)c2)cn1; active
COc1cccc(OC)c1-c1cc(C(=O)NC2(C(=O)O)C3CC4CC(C3)CC2C4)nn1-c1ccnc2cc(Cl)ccc12 (stereo not drawn); inactive
O=C(c1ccc(F)cc1)N1CCC[C@H](c2nc(-c3ccc(F)cc3)no2)C1; inactive
N[C@@]1(C(=O)O)CS(=O)(=O)[C@H]2[C@H](C(=O)O)[C@H]21; inactive
Nc1ccc(S(N)(=O)=O)cc1; inactive

Hi, do you know how `CC=CC1=C(C(=O)O)N2C(=O)[C@H](NC(=O)[C@H](N)c3ccc(O)cc3)[C@@H]2SC1` came out in this test?
active

Give the logged outcome of this assay for the following molecule: Cc1ccccc1C(OCCN(C)C)c1ccccc1 (stereo not drawn)
inactive

// return assay outcome for `N#Cc1ccc(C(c2ccc(C#N)cc2)n2cncn2)cc1`
inactive

Returns: the outcome recorded for `COc1ccc(-c2cc3nccn3c(Nc3ncccc3C(N)=O)n2)cc1OC` in this assay.
inactive

What is the recorded call for this molecule in the test? `CN(C)c1ccc(C(=O)NCCCCCCC(=O)NO)cc1`
active

Per the records of this test, what outcome belongs to CC(C)NCC(O)c1ccc(NS(C)(=O)=O)cc1 (stereo not drawn) ?
inactive

###

# procedure-summary: Viability qHTS for spleen associated tyrosine kinase inhibitor (SYKi) naive MV4-11 cells (AID 1963823); further: nearly all actives have a fitted effect of over 40% in size; further: potency means the concentration at half of the fitted maximal effect
# setup-conditions: MV4-11 AML viability, CellTiter-Glo luminescence, 72 h; series mostly up to 45 µM
Results filed as inconclusive are left out. The source made the active and inactive calls. Calls come from the whole dose curve; as a rule, active = well fitted cell-killing curve with a large enough effect; inconclusive = small, poorly fitted or top-dose-only effect, or effect the other way; inactive = no such curve, though single readings can be large or run the other way.
reported-metric: Potency

CCC(C)/C=C(C)/C=C/C1=CC2=C(Cl)C(=O)C(C)(OC(C)=O)C(=O)C2=CN1C1CCCCN(C(CCC(N)=O)C(=O)O)C1=O (stereo not given); inactive
CN(C)/C(N)=N/C(=N)N; inactive
Cn1cc(-c2ccc3c(c2)CCN3C(=O)Cc2cccc(C(F)(F)F)c2)c2c(N)ncnc21; 731 nM (active)
O=[N+]([O-])c1cccc(S(=O)(=O)NCCNS(=O)(=O)c2cccc([N+](=O)[O-])c2)c1; inactive
CCOc1nc(NC(=O)Cc2cc(OC)ccc2OC)cc(N)c1C#N; inactive
O=C1O[C@H](C(O)CO)C(=O)C1=O (stereo not given in full); inactive
O=C1OC(COc2ccccc2[N+](=O)[O-])CC1Cc1ccccc1 (stereo not given); inactive
O=C1NC(=O)[C@@H](c2c[nH]c3ccccc23)[C@H]1c1cn2c3c(cccc13)CCC2; 833 nM (active)

Tell me the measured Potency of `Cn1cc(C2=C(c3coc4ccccc34)C(=O)NC2=O)c2cc(Br)ccc21` , please.
14600 nM (active)

Recorded Potency for `CN(C)C(=O)NC1(c2ccccc2)CCN(CCC[C@]2(c3ccc(Cl)c(Cl)c3)CCCN(C(=O)c3ccccc3)C2)CC1` , please?
2590 nM (active)

###

# procedure-summary: Cellular viability qHTS for adrenocortical cancer (ACC) cell line NCI-H295R (AID 1963990); further: nearly all actives have a fitted effect of over 60% in size
# setup-conditions: CellTiter-Glo ATP luminescence, 48 h; series mostly up to 46.1 µM
Results filed as inconclusive are left out. Activity calls are given as the source filed them. The call rests on the fitted dose curve; in most records, active means well fitted cell-killing curve with a large enough effect; inconclusive means small, poorly fitted or top-dose-only effect; inactive means flat fitted curve, though single readings scatter.
Select the matching outcome among active, inactive

COc1ccc(C(=O)NCc2ccc(OCCN(C)C)cc2)cc1OC; inactive
CCOC(=O)C1=C(C)NC2=C(C(=O)CC(C)(C)C2)C1c1ccc(-c2ccccc2)cc1 (stereo not given); active
CN1CCN(C2CCC(n3cc(-c4ccc(Oc5ccccc5)cc4)c4c(N)ncnc43)CC2)CC1 (stereo not given); active
CC(C)C[C@H](NC(=O)CNC(=O)c1cc(Cl)ccc1Cl)B1OC(=O)CC(CC(=O)O)(C(=O)O)O1 (stereo not given in full); active
CNC(=O)c1ccc2c(C(=Nc3cccc(CN(C)C)c3)c3ccccc3)c(O)[nH]c2c1; active
CN1C(=O)N[C@@H](Cc2c[nH]c3c(Cl)cccc23)C1=O; inactive

Status in this test for `CCN(CC)CCNC(=O)COc1ccc(Cl)cc1` ?
inactive
